B1: LCOR (parent)
chain: YKVKERLGTLKNPPKKKMKLMSG

Variants of: B1
Assay: protein stability index of a GFP-peptide fusion (GPS, HEK-293T) (PSI 1-6); higher = more stable;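 also: lentivirally expressed fusions sorted by FACS into six bins by GFP to DsRed ratio, PSI derived from sequencing read proportions per bin multiplied by bin number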
Conditions: c terminus: native
test-readout: protein stability index

Example results:
P13L: 2.02
M21C: 4.02
S22M: 1.61

# per-item lookup of protein stability index; items listed below
1. T9D
2. N12V

Reply:
1: 2.17; 2: 1.86
